Target: T1, human DR3 (full length, on cells) (human, UniProt Q93038 25-417)
T1 sequence: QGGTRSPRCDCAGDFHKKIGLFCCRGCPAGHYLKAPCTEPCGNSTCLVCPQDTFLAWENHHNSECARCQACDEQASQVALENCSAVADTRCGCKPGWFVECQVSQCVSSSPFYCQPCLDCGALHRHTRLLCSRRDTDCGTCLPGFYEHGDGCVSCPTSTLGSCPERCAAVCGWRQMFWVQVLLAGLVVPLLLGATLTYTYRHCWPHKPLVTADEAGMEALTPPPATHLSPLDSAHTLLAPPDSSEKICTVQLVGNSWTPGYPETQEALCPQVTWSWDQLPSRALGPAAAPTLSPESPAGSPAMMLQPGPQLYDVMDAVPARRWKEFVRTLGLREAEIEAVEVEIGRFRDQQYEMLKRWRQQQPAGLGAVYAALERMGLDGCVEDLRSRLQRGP
Assay: cell-based or functional assay
testReadout: IFN-γ, TL1A-costimulated RA SF cells, Fab 0.3 µg/mL (pg/mL)
Field format: number, assumed pg/mL, no unit text.

Q) Which IFN-γ, TL1A-costimulated RA SF cells, Fab 0.3 µg/mL value belongs to 0171 (humanized IgG1 Fab of 0072 without back mutations) (Fab, V domains shown) VH: EVQLVESGGGLVQPGGSLRLSCAASGFTFSNYDMSWVRQATGKGLEWVSAFSSDGYTFYPGSVKGRFTISRENAKNSLYLQMNSLRAGDTAVYYCARHADYANYPVMDYWGQGTLVTVSS VL: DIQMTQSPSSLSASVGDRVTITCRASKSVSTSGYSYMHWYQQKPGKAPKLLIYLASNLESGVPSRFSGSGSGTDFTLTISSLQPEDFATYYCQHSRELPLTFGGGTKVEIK ?
A) 1160
